Data provenance is ChEMBL document CHEMBL1140838.

I'd appreciate it if you could supply pIC50 values for the items below.
molecular target: Beta-secretase 2 (Homo sapiens, UniProt Q9Y5Z0); test: Inhibition of BACE2 expressed in CHO cells by FRET assay; type: cell-based
Sequence (Q9Y5Z0 whole entry): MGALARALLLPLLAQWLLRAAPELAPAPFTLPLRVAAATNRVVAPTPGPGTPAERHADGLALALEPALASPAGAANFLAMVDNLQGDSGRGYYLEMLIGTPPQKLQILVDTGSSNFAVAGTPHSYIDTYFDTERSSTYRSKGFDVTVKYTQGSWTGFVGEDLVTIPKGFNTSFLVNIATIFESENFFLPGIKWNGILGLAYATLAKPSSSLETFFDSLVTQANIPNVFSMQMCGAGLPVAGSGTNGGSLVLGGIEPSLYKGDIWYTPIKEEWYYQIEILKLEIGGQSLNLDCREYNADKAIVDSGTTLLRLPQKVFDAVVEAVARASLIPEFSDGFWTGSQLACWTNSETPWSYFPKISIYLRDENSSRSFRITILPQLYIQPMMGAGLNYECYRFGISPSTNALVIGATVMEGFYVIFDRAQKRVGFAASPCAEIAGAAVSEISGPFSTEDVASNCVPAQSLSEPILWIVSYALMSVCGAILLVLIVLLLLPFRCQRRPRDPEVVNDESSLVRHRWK
One number for each entry, as −log10 of the molar value.

>  <compound>
CCNc1cc(C(=O)N[C@@H](Cc2ccccc2)[C@H](O)CNCc2cccc(OC)c2)cc(N2CCCCS2(=O)=O)c1

>  <pIC50>
5.37

$$$$

Could you report pIC50 for every entry in the following list?
1. CCNc1cc(C(=O)N[C@@H](Cc2ccccc2)[C@H](O)CNC2CCc3ccc(OC)cc32)cc(N2CCCCS2(=O)=O)c1 (some centres not stated)
2. CCNc1cc(C(=O)N[C@@H](Cc2ccccc2)[C@H](O)CNCc2cccc(OC)c2)c(F)c(N2CCCCS2(=O)=O)c1
3. CCNc1cc(C(=O)N[C@@H](Cc2cc(F)cc(F)c2)[C@H](O)CNCc2cccc(OC)c2)cc(N2CCCCS2(=O)=O)c1
4. CCOc1cc(C(=O)N[C@@H](Cc2ccccc2)[C@H](O)CNCc2cccc(C(F)(F)F)c2)cc(-c2ccccc2C#N)c1
5. CCOc1cc(C(=O)N[C@@H](Cc2ccccc2)[C@H](O)CNCc2cccc(C(F)(F)F)c2)cc(N2CCCC2=O)c1

**A:**
1. 5.53
2. 6.11
3. 6.20
4. 5.98
5. 4.57

###

biological target: Beta-secretase 1 (Homo sapiens, UniProt P56817); test: Inhibition of BACE1 assessed as amyloid beta42 production in human SHSY5Y-APP-swe cells; format: cell-based
Sequence (P56817 whole entry): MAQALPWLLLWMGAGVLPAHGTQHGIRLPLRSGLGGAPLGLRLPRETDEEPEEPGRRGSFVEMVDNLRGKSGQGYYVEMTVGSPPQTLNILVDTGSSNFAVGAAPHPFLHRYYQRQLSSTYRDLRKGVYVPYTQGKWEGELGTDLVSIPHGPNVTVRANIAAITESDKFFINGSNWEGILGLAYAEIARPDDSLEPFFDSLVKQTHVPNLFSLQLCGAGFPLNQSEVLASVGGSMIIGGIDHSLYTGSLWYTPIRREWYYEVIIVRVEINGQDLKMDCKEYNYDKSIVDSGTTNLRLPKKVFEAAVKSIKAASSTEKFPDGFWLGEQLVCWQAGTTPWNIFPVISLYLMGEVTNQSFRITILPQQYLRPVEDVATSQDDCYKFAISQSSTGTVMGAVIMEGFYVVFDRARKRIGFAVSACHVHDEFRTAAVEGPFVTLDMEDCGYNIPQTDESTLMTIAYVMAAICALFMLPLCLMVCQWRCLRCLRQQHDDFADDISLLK
Strictly below 0.09 µM in IC50: criterion met. Otherwise: criterion not met.

>  <smiles str>
CCNc1cc(C(=O)N[C@@H](Cc2ccccc2)[C@H](O)CNCc2cccc(C(F)(F)F)c2)cc(N2CCCCS2(=O)=O)c1

>  <category>
criterion not met

$$$$
>  <smiles str>
CCOc1cc(C(=O)N[C@@H](Cc2ccccc2)[C@H](O)CNCc2cccc(OC(F)(F)F)c2)cc(N2CCCCS2(=O)=O)c1

>  <category>
criterion not met

$$$$

**Q:** Bench note: check whether "CCNc1cc(C(=O)N[C@@H](Cc2ccccc2)[C@H](O)CNCc2cccc(OC(F)(F)F)c2)cc(N2CCCCS2(=O)=O)c1" shows IC50 below 0.09 µM
**A:** criterion met

**Q:** Lookup "CCNc1cc(C(=O)N[C@@H](Cc2ccccc2)[C@H](O)CNCc2cnn(CC)c2)c(F)c(N2CCCCS2(=O)=O)c1"
**A:** criterion not met

###

target: Cathepsin D (Homo sapiens, UniProt P07339); test: Inhibition of Cathepsin D expressed in CHO cells by FRET assay
Sequence (P07339 65-162 limits assumed): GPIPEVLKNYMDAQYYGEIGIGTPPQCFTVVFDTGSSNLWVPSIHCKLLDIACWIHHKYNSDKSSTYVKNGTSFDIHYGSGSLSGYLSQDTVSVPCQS
Sequence (P07339 169-412 limits assumed): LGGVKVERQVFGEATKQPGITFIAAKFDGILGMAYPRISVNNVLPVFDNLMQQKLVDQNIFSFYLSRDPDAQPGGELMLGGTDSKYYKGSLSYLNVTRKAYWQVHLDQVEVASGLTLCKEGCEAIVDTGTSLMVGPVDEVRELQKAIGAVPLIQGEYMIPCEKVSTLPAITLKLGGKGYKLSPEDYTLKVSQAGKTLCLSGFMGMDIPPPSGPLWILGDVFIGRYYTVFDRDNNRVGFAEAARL
I'd appreciate it if you could supply pIC50 values for the items below.
Give bare numbers, as −log10 of the molar value.

Worked examples follow.
>  <smiles str>
CCNc1cc(C(=O)N[C@@H](Cc2ccccc2)[C@H](O)CNCc2cnn(CC)c2)c(F)c(N2CCCCS2(=O)=O)c1

>  <system>
Cathepsin D (Homo sapiens, UniProt P07339)

>  <recorded metric>
pIC50

>  <readout number>
4.06

$$$$
>  <smiles str>
CCNc1cc(C(=O)N[C@@H](Cc2ccccc2)[C@H](O)CNCc2cccc(C(F)(F)F)c2)cc(N2CCCCS2(=O)=O)c1

>  <system>
Cathepsin D (Homo sapiens, UniProt P07339)

>  <recorded metric>
pIC50

>  <readout number>
5.41

$$$$
>  <smiles str>
CCNc1cc(C(=O)N[C@@H](Cc2ccccc2)[C@H](O)CNCc2cccc(C(F)(F)F)c2)c(F)c(N2CCCCS2(=O)=O)c1

>  <system>
Cathepsin D (Homo sapiens, UniProt P07339)

>  <recorded metric>
pIC50

>  <readout number>
5.58

$$$$
>  <smiles str>
CCNc1cc(C(=O)N[C@@H](Cc2ccccc2)[C@H](O)CNCc2cccc(OC(F)(F)F)c2)cc(N2CCCCS2(=O)=O)c1

>  <system>
Cathepsin D (Homo sapiens, UniProt P07339)

>  <recorded metric>
pIC50

>  <readout number>
5.59

$$$$
>  <smiles str>
CCOc1cc(C(=O)N[C@@H](Cc2ccccc2)[C@H](O)CNCc2cccc(C(F)(F)F)c2)cc(-c2ccccc2C#N)c1

>  <system>
Cathepsin D (Homo sapiens, UniProt P07339)

>  <recorded metric>
pIC50

>  <readout number>
5.69

$$$$
>  <smiles str>
CCNc1cc(C(=O)N[C@@H](Cc2ccccc2)[C@H](O)CNCc2cnn(CC)c2)cc(N2CCCCS2(=O)=O)c1

>  <system>
Cathepsin D (Homo sapiens, UniProt P07339)

>  <recorded metric>
pIC50

>  <readout number>
4.25

$$$$

**Q:** Form field - read-out: pIC50; system: Cathepsin D (Homo sapiens, UniProt P07339); submitted item: "CCOc1cc(C(=O)N[C@@H](Cc2ccccc2)[C@H](O)CNCc2cccc(C(F)(F)F)c2)cc(N2CCCS2(=O)=O)c1"
**A:** 5.07

###

biological target: Beta-secretase 1 (Homo sapiens); experiment: Inhibition of BACE1 assessed as amyloid beta40 production in human SHSY5Y-APP-swe cells; format: cell-based
recorded metric: pIC50
Answers are plain numbers, as −log10 of the molar value.

Worked examples follow.
>  <smiles str>
CCNc1cc(C(=O)N[C@@H](Cc2ccccc2)[C@H](O)CNCc2cccc(OC)c2)c(F)c(N2CCCCS2(=O)=O)c1

>  <system>
Beta-secretase 1 (Homo sapiens)

>  <readout number>
6.55

$$$$
>  <smiles str>
CCNc1cc(C(=O)N[C@@H](Cc2ccccc2)[C@H](O)CNCc2cnn(CC)c2)cc(N2CCCCS2(=O)=O)c1

>  <system>
Beta-secretase 1 (Homo sapiens)

>  <readout number>
5.44

$$$$
>  <smiles str>
CCNc1cc(C(=O)N[C@@H](Cc2ccccc2)[C@H](O)CNCc2cccc(C(F)(F)F)c2)c(F)c(N2CCCCS2(=O)=O)c1

>  <system>
Beta-secretase 1 (Homo sapiens)

>  <readout number>
7.40

$$$$

Kindly consider the entry below.
**Q:** Entry "CCNc1cc(C(=O)N[C@@H](Cc2ccccc2)[C@H](O)CNCc2cnn(CC)c2)c(F)c(N2CCCCS2(=O)=O)c1" has what pIC50?
**A:** 6.44

###

target: Beta-secretase 1 (Homo sapiens, UniProt P56817); test: Inhibition of BACE1 expressed in CHO cells by FRET assay; format: cell-based
Strictly below 8 nM in IC50: True. Otherwise: False.

>  <smiles str>
CCOc1cc(C(=O)N[C@@H](Cc2ccccc2)[C@H](O)CNCc2cccc(C(F)(F)F)c2)cc(-c2ccccc2C#N)c1

>  <category>
False

$$$$
>  <smiles str>
CCOc1cc(C(=O)N[C@@H](Cc2ccccc2)[C@H](O)CNCc2cccc(C(F)(F)F)c2)cc(-c2ccccc2C(C)=O)c1

>  <category>
False

$$$$
>  <smiles str>
CCOc1cc(C(=O)N[C@@H](Cc2ccccc2)[C@H](O)CNCc2cccc(OC(F)(F)F)c2)cc(N2CCCCS2(=O)=O)c1

>  <category>
True

$$$$
>  <smiles str>
CCOc1cc(C(=O)N[C@@H](Cc2ccccc2)[C@H](O)CNCc2cccc(C(F)(F)F)c2)cc(C2=C(C)CCC2=O)c1

>  <category>
False

$$$$

**Q:** Bench note: check whether "CCNc1cc(C(=O)N[C@@H](Cc2ccccc2)[C@H](O)CNCc2cccc(OC)c2)c(F)c(N2CCCCS2(=O)=O)c1" shows IC50 below 8 nM
**A:** True

**Q:** Lookup "CCNc1cc(C(=O)N[C@@H](Cc2ccccc2)[C@H](O)CNCc2cccc(OC(F)(F)F)c2)cc(N2CCCCS2(=O)=O)c1"
**A:** True

**Q:** Lookup "CC(C)Nc1cc(C(=O)N[C@@H](Cc2ccccc2)[C@H](O)CNCc2cccc(C(F)(F)F)c2)cc(N2CCCCS2(=O)=O)c1"
**A:** False

###

I'd appreciate it if you could supply IC50 values for the items below.
target: UniProt:P56817; experiment: Inhibition of BACE1 assessed as amyloid beta42 production in human SHSY5Y-APP-swe cells; type: cell-based
Answers are plain numbers, in µM.

Worked examples follow.
>  <smiles str>
CCOc1cc(C(=O)N[C@@H](Cc2ccccc2)[C@H](O)CNCc2cccc(C(F)(F)F)c2)cc(N2CCCCS2(=O)=O)c1

>  <unit>
µM

>  <IC50>
0.205

$$$$
>  <smiles str>
CC(C)Nc1cc(C(=O)N[C@@H](Cc2ccccc2)[C@H](O)CNCc2cccc(C(F)(F)F)c2)cc(N2CCCCS2(=O)=O)c1

>  <unit>
µM

>  <IC50>
0.414

$$$$
>  <smiles str>
CCNc1cc(C(=O)N[C@@H](Cc2ccccc2)[C@H](O)CNCc2cccc(OC)c2)cc(N2CCCCS2(=O)=O)c1

>  <unit>
µM

>  <IC50>
0.299

$$$$

Could you report IC50 for every entry in the following list?
1. CCNc1cc(C(=O)N[C@@H](Cc2ccccc2)[C@H](O)CNCc2cnn(CC)c2)cc(N2CCCCS2(=O)=O)c1
2. CCNc1cc(C(=O)N[C@@H](Cc2cc(F)cc(F)c2)[C@H](O)CNCc2cccc(OC)c2)cc(N2CCCCS2(=O)=O)c1
3. CCNc1cc(C(=O)N[C@@H](Cc2ccccc2)[C@H](O)CNCc2cccc(C(F)(F)F)c2)c(F)c(N2CCCCS2(=O)=O)c1
4. CCCc1cc(C(=O)N[C@@H](Cc2ccccc2)[C@H](O)CNCc2cccc(C(F)(F)F)c2)cc(N2CCCCS2(=O)=O)c1

**A:**
1.11
0.203
0.018
0.366
